TARGET: c-Src (Homo sapiens, UniProt P12931)
Sequence (P12931 whole entry): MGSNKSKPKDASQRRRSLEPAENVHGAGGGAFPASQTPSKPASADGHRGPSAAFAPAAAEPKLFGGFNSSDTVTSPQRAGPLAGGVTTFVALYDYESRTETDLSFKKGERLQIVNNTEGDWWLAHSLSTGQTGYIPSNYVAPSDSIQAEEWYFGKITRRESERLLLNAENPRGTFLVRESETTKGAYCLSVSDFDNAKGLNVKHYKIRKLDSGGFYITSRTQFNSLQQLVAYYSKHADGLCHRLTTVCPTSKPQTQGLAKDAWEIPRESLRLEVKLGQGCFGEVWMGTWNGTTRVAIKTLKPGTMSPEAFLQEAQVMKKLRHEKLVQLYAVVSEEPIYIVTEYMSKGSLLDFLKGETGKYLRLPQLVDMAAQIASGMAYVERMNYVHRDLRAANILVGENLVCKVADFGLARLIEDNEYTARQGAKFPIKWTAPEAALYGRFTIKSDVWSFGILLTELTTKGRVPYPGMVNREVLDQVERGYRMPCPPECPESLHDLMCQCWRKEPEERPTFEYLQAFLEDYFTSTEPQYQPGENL
QUANTITY NAME: IC50 (µM)
Numbers only; they are read as µM.

Enquiry: Which IC50 is listed for CCc1cncc(Nc2cc(COc3ccc(NC(=O)Nc4cc(C(C)(C)C)nn4-c4ccc(C)cc4)c4ccccc34)ccn2)n1 ?
Return: 0.199

----------
TARGET: GSK 3α enzyme isoform (Homo sapiens)
Sequence (P49840 whole entry, canonical isoform): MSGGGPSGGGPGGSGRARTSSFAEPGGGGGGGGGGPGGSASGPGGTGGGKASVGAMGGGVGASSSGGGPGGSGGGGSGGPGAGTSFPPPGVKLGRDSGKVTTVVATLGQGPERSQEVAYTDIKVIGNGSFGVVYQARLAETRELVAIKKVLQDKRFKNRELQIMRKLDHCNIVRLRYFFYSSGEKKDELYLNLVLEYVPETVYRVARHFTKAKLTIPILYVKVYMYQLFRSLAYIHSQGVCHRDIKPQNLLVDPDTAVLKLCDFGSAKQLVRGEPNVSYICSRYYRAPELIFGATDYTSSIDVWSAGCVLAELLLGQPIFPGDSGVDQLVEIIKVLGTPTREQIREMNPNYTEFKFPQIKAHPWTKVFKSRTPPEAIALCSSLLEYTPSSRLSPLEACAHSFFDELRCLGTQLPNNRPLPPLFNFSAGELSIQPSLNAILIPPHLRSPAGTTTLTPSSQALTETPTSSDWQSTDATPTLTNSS
ASSAY METHOD TEXT: GSK 3α enzyme inhibition (Z-LYTE FRET)
CONDITION SUMMARY: read-out: IC50 Values for Enzyme Inhibition GSK3α
QUANTITY NAME: IC50

Enquiry: Which IC50 is listed for CCc1cncc(Nc2cc(COc3ccc(NC(=O)Nc4cc(C(C)(C)C)nn4-c4ccc(C)cc4)c4ccccc34)ccn2)n1 ?
Return: > 15.1 µM
